- Experimental target: MMP-9 (Homo sapiens)
- Construct: purchased SIGMA PF024
- Sequence (P14780 94-707): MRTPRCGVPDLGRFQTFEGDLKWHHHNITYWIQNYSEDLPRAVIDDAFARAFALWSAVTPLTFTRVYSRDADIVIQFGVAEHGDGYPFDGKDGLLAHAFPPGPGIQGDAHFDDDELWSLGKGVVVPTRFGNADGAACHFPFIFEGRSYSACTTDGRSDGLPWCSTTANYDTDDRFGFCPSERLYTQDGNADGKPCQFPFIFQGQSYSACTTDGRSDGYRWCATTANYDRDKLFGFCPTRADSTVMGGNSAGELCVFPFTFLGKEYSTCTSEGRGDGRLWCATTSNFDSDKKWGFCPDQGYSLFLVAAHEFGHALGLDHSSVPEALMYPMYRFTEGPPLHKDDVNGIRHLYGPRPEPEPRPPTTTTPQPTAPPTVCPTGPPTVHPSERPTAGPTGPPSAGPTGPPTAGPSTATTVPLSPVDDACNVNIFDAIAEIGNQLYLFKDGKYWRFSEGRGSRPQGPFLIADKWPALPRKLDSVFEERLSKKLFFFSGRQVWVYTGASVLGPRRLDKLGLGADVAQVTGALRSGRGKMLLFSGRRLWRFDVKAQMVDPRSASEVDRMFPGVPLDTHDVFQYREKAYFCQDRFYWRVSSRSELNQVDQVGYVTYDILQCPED
- Experiment notes: FRET peptide cleavage efficiency with MMP-9 (standard pH 7.5; also pH 6.5)
- Assay type: biochemical
- Settings: t = 15 min (Table 9)
Square brackets hold non-standard residues; d marks the D form. Ends that are not written are not given here. Tyr(3-NO2) = N[C@@H](Cc1ccc(O)c([N+](=O)[O-])c1)C(=O)O; 2Abz = Nc1ccccc1C(=O)O
Could you label it 1 if measured % cleavage MMP-9 t = 15 min is 20% or higher, and -1 otherwise?

Reference set, count: 5
SGRVLRKAGPANLVG ([2Abz]SGRVLRKAGPANLVG[Tyr(3-NO2)]-NH2) [LNK014]	1
SGRVLRKAGPQPLVD ([2Abz]SGRVLRKAGPQPLVD[Tyr(3-NO2)]-NH2) [LNK003]	1
RGRRHSSKLQ ([2Abz]RGRRHSSKLQ[Tyr(3-NO2)]-NH2) [LNK052]	-1
RGRRGP ([2Abz]RGRRGP[Tyr(3-NO2)]-NH2) [LNK048]	-1
RGRRVANPLGLAGSG ([2Abz]RGRRVANPLGLAGSG[Tyr(3-NO2)]-NH2) [LNK050]	1

Is it the case that RGRKPQPLVD ([2Abz]RGRKPQPLVD[Tyr(3-NO2)]-NH2) [LNK039] has % cleavage MMP-9 t = 15 min reaching or exceeding 20%?
1

Exam item: decide whether the reported % cleavage MMP-9 t = 15 min for SSRGPYMLQG ([2Abz]SSRGPYMLQG[Tyr(3-NO2)]-NH2) [LNK022] is at least 20%.
1

Quick check: does SGRVANYFGKL ([2Abz]SGRVANYFGKL[Tyr(3-NO2)]-NH2) [LNK054] have % cleavage MMP-9 t = 15 min greater than or equal to 20%?
1

Please check the record GSGSGSGS ([2Abz]GSGSGSGS[Tyr(3-NO2)]-NH2) [LNK064] and state if its % cleavage MMP-9 t = 15 min is at or above 20%.
-1

====

Please provide measured % cleavage MMP-2 t = 120 min for the entries that follow.
- Experimental target: MMP-2 (Homo sapiens)
- Construct: purchased SIGMA PF023
- Sequence (P08253 110-660): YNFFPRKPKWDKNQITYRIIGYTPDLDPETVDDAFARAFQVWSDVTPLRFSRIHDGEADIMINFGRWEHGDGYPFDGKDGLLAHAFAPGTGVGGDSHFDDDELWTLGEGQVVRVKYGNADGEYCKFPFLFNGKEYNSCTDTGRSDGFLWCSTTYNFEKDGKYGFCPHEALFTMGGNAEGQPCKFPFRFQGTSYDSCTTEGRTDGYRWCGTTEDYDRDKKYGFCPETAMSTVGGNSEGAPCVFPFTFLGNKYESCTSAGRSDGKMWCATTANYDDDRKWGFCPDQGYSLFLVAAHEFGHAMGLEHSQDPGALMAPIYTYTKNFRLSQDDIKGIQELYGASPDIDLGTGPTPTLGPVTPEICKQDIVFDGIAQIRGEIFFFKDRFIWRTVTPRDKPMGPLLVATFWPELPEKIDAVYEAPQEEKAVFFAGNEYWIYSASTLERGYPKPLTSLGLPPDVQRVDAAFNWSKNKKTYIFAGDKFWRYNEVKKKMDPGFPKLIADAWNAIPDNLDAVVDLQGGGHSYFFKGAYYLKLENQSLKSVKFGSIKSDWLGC
- Experiment notes: FRET peptide cleavage efficiency with MMP-2
- Assay type: biochemical
- Settings: t = 120 min; 200 uM linker, 1 ug/ml protease, 37° C., buffer C pH 7.5
Square brackets hold non-standard residues; d marks the D form. Ends that are not written are not given here. Tyr(3-NO2) = N[C@@H](Cc1ccc(O)c([N+](=O)[O-])c1)C(=O)O; 2Abz = Nc1ccccc1C(=O)O
Give bare numbers, in %.

KSKQHSL ([2Abz]KSKQHSL[Tyr(3-NO2)]-NH2) [LNK077]	6
SGRVLTLRKAGPANLVG ([2Abz]SGRVLTLRKAGPANLVG[Tyr(3-NO2)]-NH2) [LNK012]	94
SSRVFRKPANLAG ([2Abz]SSRVFRKPANLAG[Tyr(3-NO2)]-NH2) [LNK019]	99
SGRVLGPLNLSG ([2Abz]SGRVLGPLNLSG[Tyr(3-NO2)]-NH2) [LNK008]	99

Determine its reported % cleavage MMP-2 t = 120 min: RRLHYSL ([2Abz]RRLHYSL[Tyr(3-NO2)]-NH2) [LNK073]
6

Measured values drawn from patent US20240400614A1 for this set.
